Numbers sourced from paper PMC12441791.

assay protocol: In vitro cytotoxicity, Vero normal cells
Assay type: cell-based, African green monkey
condition summary: African green monkey, Vero cells (kidney, non-tumorigenic)
Would you kindly list IC50 for each of these compounds?

Task item: What IC50 value was documented for this compound, C=CC(C)(C)c1c2c(c(O)c3c(=O)c4ccc(O)c(OCC)c4oc13)C=CC(C)(C)O2 [Compound 2g, 5-Ethoxymacluraxanthone] ?
Reply: > 100 µM

Task item: Now try C=CC(C)(C)c1c2c(c(OC(=O)CCCC)c3c(=O)c4ccc(OC(=O)CCCC)c(OC(=O)CCCC)c4oc13)C=CC(C)(C)O2 [Compound 2b, 1,5,6-Tripentanoyloxymacluraxanthone] .
Reply: 36 µM

Task item: Likewise for CC1Oc2cc3oc4c(OS(C)(=O)=O)c(OS(C)(=O)=O)ccc4c(=O)c3c(O)c2C1(C)C (stereo not drawn) [Compound 1c, 5,6-Dimesyloxytoxyloxanthone C] ?
Reply: > 100 µM

Task item: Now give it for CCCCC(=O)Oc1ccc2c(=O)c3c(OC(=O)CCCC)c4c(cc3oc2c1OC(=O)CCCC)OC(C)C4(C)C (stereo not drawn) [Compound 1b, 1,5,6-Tripentanoyloxytoxyloxanthone C] too.
Reply: 5.59 µM

Task item: Try this compound next: C=CC(C)(C)c1c2c(c(O)c3c(=O)c4ccc(OS(C)(=O)=O)c(OS(C)(=O)=O)c4oc13)C=CC(C)(C)O2 [Compound 2c, 5,6-Dimesyloxymacluraxanthone]
Reply: > 100 µM

Task item: And then C=CC(C)(C)c1c2c(c(O)c3c(=O)c4ccc(OCC)c(OCC)c4oc13)C=CC(C)(C)O2 [Compound 2f, 5,6-Diethoxymacluraxanthone] , what is it?
Reply: > 100 µM

###

Tested on: Bacillus subtilis ATCC 6633
assay protocol: Antibacterial microdilution MIC, B. subtilis
Type: cell-based
condition summary: ATCC6633, microdilution method, ATCC 6633, read-out: MIC B. subtilis
property: MIC

Task item: Report MIC for C=CC(C)(C)c1c2c(c(O)c3c(=O)c4ccc(OCC)c(OCC)c4oc13)C=CC(C)(C)O2 please.
Reply: > 128 µg/mL

Task item: How about CCCCC(=O)Oc1ccc2c(=O)c3c(OC(=O)CCCC)c4c(cc3oc2c1OC(=O)CCCC)OC(C)C4(C)C (stereo not shown) ?
Reply: 8 µg/mL

Task item: Could you do the same for C=CC(C)(C)c1c2c(c(O)c3c(=O)c4ccc(O)c(OCC)c4oc13)C=CC(C)(C)O2 , please?
Reply: > 128 µg/mL

Task item: Try the compound C=CC(C)(C)c1c2c(c(O)c3c(=O)c4ccc(OC(C)=O)c(OC(C)=O)c4oc13)C=CC(C)(C)O2
Reply: 32 µg/mL

Task item: Record: C=CC(C)(C)c1c2c(c(O)c3c(=O)c4ccc(OS(C)(=O)=O)c(OS(C)(=O)=O)c4oc13)C=CC(C)(C)O2
Reply: > 128 µg/mL

Task item: Try the compound COc1ccc2c(=O)c3c(O)c4c(cc3oc2c1OC)OC(C)C4(C)C (stereo not shown)
Reply: > 128 µg/mL

Task item: Same lookup for C=CC(C)(C)c1c2c(c(O)c3c(=O)c4ccc(OC)c(OC)c4oc13)C=CC(C)(C)O2 , please.
Reply: > 128 µg/mL

Task item: Same lookup for CC(=O)Oc1ccc2c(=O)c3c(O)c4c(cc3oc2c1OC(C)=O)OC(C)C4(C)C (stereo not shown) , please.
Reply: 4 µg/mL

Task item: What do you have for CC1Oc2cc3oc4c(OS(C)(=O)=O)c(OS(C)(=O)=O)ccc4c(=O)c3c(O)c2C1(C)C (stereo not shown) ?
Reply: > 128 µg/mL

Task item: Now try CCOc1ccc2c(=O)c3c(O)c4c(cc3oc2c1OCC)OC(C)C4(C)C (stereo not shown) .
Reply: > 128 µg/mL

Task item: Param item: CC1Oc2c(c(O)c3c(=O)c4ccc(O)c(O)c4oc3c2Br)C1(C)C (stereo not shown)
Reply: 4 µg/mL

Task item: Record: C=CC(C)(C)c1c2c(c(OC(=O)CCCC)c3c(=O)c4ccc(OC(=O)CCCC)c(OC(=O)CCCC)c4oc13)C=CC(C)(C)O2
Reply: > 128 µg/mL

Task item: And the next one, C=CC(C)(C)c1c2c(c(O)c3c(=O)c4ccc(O)c(OC)c4oc13)C=CC(C)(C)O2 ?
Reply: > 128 µg/mL

###

assay protocol: In vitro cytotoxicity, Vero normal cells
Format: cell-based, African green monkey
condition summary: African green monkey, Vero cells (kidney, non-tumorigenic)
Protocol: All types of cancer and non-tumorigenic cells were purchased from ATCC. Cytotoxicity assays against human cervical carcinoma (HelaS3; ATCC CCL2-2), human hepatocellular carcinoma (HepG2; ATCC HB-8065), human lung carcinoma (A549; ATCC CCL-185), and African green monkey kidney (Vero; ATCC CCL-81) cell lines were performed by terminal deoxynucleotidyl transferase (TdT) dUTP Nick-End Labeling (TUNEL) assay.[44] […]
property: IC50 (µM)
// units = µM; emit number, no label

Task item: Given the compound COc1cccc2c1C(=O)c1c(O)c3c(c(O)c1C2=O)C[C@@](O)(C(=O)CO)C[C@@H]3O[C@H]1C[C@H](N)[C@H](O)[C@H](C)O1 [Doxorubicin, reference compound] , what is its reported IC50?
Reply: 1.95

Task item: Try the compound C=CC(C)(C)c1c2c(c(O)c3c(=O)c4ccc(OC(C)=O)c(OC(C)=O)c4oc13)C=CC(C)(C)O2
Reply: 10.1
